target: Calmodulin-cyclic-AMP phosphodiesterase (Bos taurus); construct: tissue Amano & Co. (calmodulin only); host or cells: phosphodiesterase: bovine heart, partially purified; calmodulin: bovine brain; assay: Calmodulin-cyclic-AMP phosphodiesterase inhibitory activity (presence of calmodulin); type: biochemical, bovine; conditions: with calmodulin and CaCl2; pH 7.0, 30° C., 30 minutes; read-out: Calmodulin-cyclic-AMP phosphodiesterase IC50 (converted)
// IC50 lookup, one value per entry
Express the result in µM but write the number alone.

COC(=O)C1=C(C)NC(C)=C(C(=O)OC/C=C/c2ccc(OC)cc2)C1c1cccc([N+](=O)[O-])c1 (centres unmarked) ... 5.64
COC(=O)C1=C(C)NC(C)=C(C(=O)OC/C=C/c2ccc(OC(C)=O)cc2)C1c1cccc([N+](=O)[O-])c1 (centres unmarked) ... 5.92
COC(=O)C1=C(C)NC(C)=C(C(=O)OCCN2CCN(CC#Cc3ccccc3)CC2)C1c1cccc([N+](=O)[O-])c1 (centres unmarked) ... 14.3
COC(=O)C1=C(C)NC(C)=C(C(=O)OC/C=C/c2nnnn2C)C1c1cccc([N+](=O)[O-])c1 (centres unmarked) ... 11.7
COC(=O)C1=C(C)NC(C)=C(C(=O)OC/C=C/c2ccc(O)c(Cl)c2)C1c1cccc([N+](=O)[O-])c1 (centres unmarked) ... 10.6

Request: Data request, read-out IC50, for COC(=O)C1=C(C)NC(C)=C(C(=O)OCCN2CC=C(c3ccc(C)cc3)CC2)C1c1cccc([N+](=O)[O-])c1 (centres unmarked)
Response: 10.3

Request: Data request, read-out IC50, for COC(=O)C1=C(C)NC(C)=C(C(=O)OC/C=C/c2ccc(O)cc2)C1c1ccccc1C(F)(F)F (centres unmarked)
Response: 12.8

Request: Data request, read-out IC50, for COC(=O)C1=C(C)NC(COC/C=C/c2ccc(O)cc2)=C(C(=O)OC)C1c1cccc([N+](=O)[O-])c1 (centres unmarked)
Response: 12.1

Request: Data request, read-out IC50, for COC(=O)C1=C(C)NC(C)=C(C(=O)OC/C=C/c2cccc(O)c2)C1c1cccc([N+](=O)[O-])c1 (centres unmarked)
Response: 1.94

Request: Data request, read-out IC50, for COC(=O)C1=C(C)NC(C)=C(C(=O)OC/C=C/c2ccccc2O)C1c1cccc([N+](=O)[O-])c1 (centres unmarked)
Response: 3.55

Request: Data request, read-out IC50, for COC(=O)C1=C(C)NC(C)=C(C(=O)OC/C=C/c2ccc(O)cc2)C1c1ccccc1C (centres unmarked)
Response: 13.4

----------
target: Calmodulin-cyclic-AMP phosphodiesterase (Bos taurus, UniProt P62157); construct: tissue Amano & Co. (calmodulin only); host or cells: phosphodiesterase: bovine heart, partially purified; calmodulin: bovine brain; assay: Calmodulin-cyclic-AMP phosphodiesterase inhibitory activity (presence of calmodulin); format: biochemical, bovine
observation.type: IC50 (µM)
Express the result in µM but write the number alone.

Request: Data request, read-out IC50, for COC(=O)C1=C(C)NC(C)=C(C(=O)OCCN(C)Cc2ccccc2)C1c1cccc([N+](=O)[O-])c1 (stereo not shown) [Test Compound 26, reference compound]
Response: 13

----------
molecular target: Cyclic-AMP phosphodiesterase (Bos taurus, UniProt P14100); assay: Cyclic AMP phosphodiesterase inhibitory activity (absence of calmodulin, EGTA in place of CaCl2); details: 1 mM EGTA in place of CaCl2; 3 hours
Sequence (P14100 1-514 isoform P14100-2): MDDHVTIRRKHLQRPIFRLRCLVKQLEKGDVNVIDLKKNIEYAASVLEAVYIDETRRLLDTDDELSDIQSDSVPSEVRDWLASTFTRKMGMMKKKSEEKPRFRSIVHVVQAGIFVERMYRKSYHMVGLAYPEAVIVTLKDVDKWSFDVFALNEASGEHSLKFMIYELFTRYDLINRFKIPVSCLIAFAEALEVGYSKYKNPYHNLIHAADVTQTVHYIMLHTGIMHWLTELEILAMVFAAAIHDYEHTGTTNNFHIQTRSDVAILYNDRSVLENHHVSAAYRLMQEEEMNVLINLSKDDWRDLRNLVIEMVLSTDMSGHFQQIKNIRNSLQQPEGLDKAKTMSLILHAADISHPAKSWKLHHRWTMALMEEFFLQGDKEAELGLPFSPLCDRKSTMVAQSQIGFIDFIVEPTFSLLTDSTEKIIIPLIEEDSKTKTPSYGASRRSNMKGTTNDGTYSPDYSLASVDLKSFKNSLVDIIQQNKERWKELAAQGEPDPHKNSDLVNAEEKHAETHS
pIC50: −log10 of the molar value.
observation.type: pIC50

Example compounds with recorded pIC50:
COC(=O)C1=C(C)NC(C)=C(C(=O)OCCN2CCN(CC#Cc3ccccc3)CC2)C1c1cccc([N+](=O)[O-])c1 (stereo not drawn) ... < 3.75
COC(=O)C1=C(C)NC(C)=C(C(=O)OC/C=C/c2ccc(O)c(Cl)c2)C1c1cccc([N+](=O)[O-])c1 (stereo not drawn) ... 3.70

Now for the compound whose pIC50 we want.
Request: Data request, read-out pIC50, for COC(=O)C1=C(C)NC(C)=C(C(=O)OC/C=C/c2ccco2)C1c1cccc([N+](=O)[O-])c1 (stereo not drawn)
Response: < 3.64

----------
// IC50 lookup, one value per entry
biological target: Calmodulin-cyclic-AMP phosphodiesterase (Bos taurus, UniProt P62157); construct: tissue Amano & Co. (calmodulin only); host or cells: phosphodiesterase: bovine heart, partially purified; calmodulin: bovine brain; experiment: Calmodulin-cyclic-AMP phosphodiesterase inhibitory activity (presence of calmodulin); type: biochemical, bovine; details: with calmodulin and CaCl2; pH 7.0, 30° C., 30 minutes; read-out: Calmodulin-cyclic-AMP phosphodiesterase IC50 (converted)
Express the result in µM but write the number alone.

COC(=O)C1=C(C)NC(C)=C(C(=O)OC/C=C/C=C/c2ccc(O)cc2)C1c1cccc([N+](=O)[O-])c1 (stereo not shown) ... 1.73
COC(=O)C1=C(C)NC(C)=C(C(=O)OC/C=C/c2ccc(O)c(OC)c2)C1c1cccc([N+](=O)[O-])c1 (stereo not shown) ... 10.5
COC(=O)C1=C(C)NC(C)=C(C(=O)OC/C=C/c2ccc(O)cc2)C1c1ccc(Cl)cc1Cl (stereo not shown) ... 5.02

Request: Data request, read-out IC50, for COC(=O)C1=C(C)NC(C)=C(C(=O)OCC#Cc2cccs2)C1c1cccc([N+](=O)[O-])c1 (stereo not shown)
Response: 2.43

----------
target: Calmodulin-cyclic-AMP phosphodiesterase (Bos taurus, UniProt P62157); construct: tissue Amano & Co. (calmodulin only); host or cells: phosphodiesterase: bovine heart, partially purified; calmodulin: bovine brain; assay: Calmodulin-cyclic-AMP phosphodiesterase inhibitory activity (presence of calmodulin); type: biochemical, bovine; conditions: with calmodulin and CaCl2; pH 7.0, 30° C., 30 minutes; read-out: Calmodulin-cyclic-AMP phosphodiesterase IC50 (converted)
observation.type: IC50 (µM)
Express the result in µM but write the number alone.

COC(=O)C1=C(C)NC(C)=C(C(=O)OC/C=C/c2ccc(O)cc2)C1c1ccc(OC)c(OC)c1 (stereo not shown) ... 6.67
COC(=O)C1=C(C)NC(C)=C(C(=O)OC/C=C/c2ccc(O)cc2)C1c1ccccc1 (stereo not shown) ... 16.2
COC(=O)C1=C(C)NC(C)=C(C(=O)OC/C=C/c2ccco2)C1c1cccc([N+](=O)[O-])c1 (stereo not shown) ... 3.54

Now for the compound whose IC50 we want.
Request: Data request, read-out IC50, for COC(=O)C1=C(C)NC(C)=C(C(=O)OC/C=C/c2ccccc2)C1c1cccc([N+](=O)[O-])c1 (stereo not shown)
Response: 5.57

----------
// IC50 lookup, one value per entry
Target: Cyclic-AMP phosphodiesterase (Bos taurus)
Experiment: Cyclic AMP phosphodiesterase inhibitory activity (absence of calmodulin, EGTA in place of CaCl2)
Conditions: 1 mM EGTA in place of CaCl2; 3 hours
Protocol: (2) Calmodulin-dependent cyclic-AMP phosphodiesterase (EC 3.1.4.17): An enzyme substance isolated from the heart of bovine and purified partially by a method of modified version of the disclosure in H. C. Ho, T. S. Teo, et al.: "Biochim. Biophys. Acta", 429, 461 (1976). […] Calmodulin inhibitory activity of each of the test compounds was measured by a method of modified version of the disclosure in T. S. Teo and T. H. Wang: "J. Bio. […]

COC(=O)C1=C(C)NC(C)=C(C(=O)OCCN2CC=C(c3ccc(C)cc3)CC2)C1c1cccc([N+](=O)[O-])c1 (stereo not shown) ... > 188 µM

Request: Data request, read-out IC50, for COC(=O)C1=C(C)NC(COC/C=C/c2ccc(O)cc2)=C(C(=O)OC)C1c1cccc([N+](=O)[O-])c1 (stereo not shown)
Response: > 202 µM

Request: Data request, read-out IC50, for COC(=O)C1=C(C)NC(C)=C(C(=O)OCC#Cc2cccs2)C1c1cccc([N+](=O)[O-])c1 (stereo not shown)
Response: > 221 µM

Request: Data request, read-out IC50, for COC(=O)C1=C(C)NC(C)=C(C(=O)OC/C=C/c2nnnn2C)C1c1cccc([N+](=O)[O-])c1 (stereo not shown)
Response: 79.2 µM

Request: Data request, read-out IC50, for COC(=O)C1=C(C)NC(C)=C(C(=O)OC/C=C/c2ccc(O)cc2)C1c1ccc(OC)c(OC)c1 (stereo not shown)
Response: 62.6 µM

Request: Data request, read-out IC50, for COC(=O)C1=C(C)NC(C)=C(C(=O)OC/C=C/c2ccc(O)cc2)C1c1ccc(Cl)cc1Cl (stereo not shown)
Response: 30.7 µM

Request: Data request, read-out IC50, for COC(=O)C1=C(C)NC(C)=C(C(=O)OC/C=C/c2cccc(O)c2)C1c1cccc([N+](=O)[O-])c1 (stereo not shown)
Response: 53 µM
